Source of measurements: patent US10730850B2

# Test system: hepatocytes
# Measurement Protocol: Metabolic stability assay in hepatocyte suspension
# Assay type: in vitro ADME
# Test Settings: 1 μM test compound, Table 4
Measured Attribute: QH (%)
Respond numerically; units are % and should not be typed.

Lab note: measured QH of N=C(N)NC(=O)OCc1ccnc(N2CCN(c3ccc(C(N)=O)cc3)CC2)c1F was 10

Lab note: measured QH of COC(=O)c1ccc(N2CCN(c3nccc(COC(=O)NC(=N)N)c3F)CC2)nc1 was 92

Lab note: measured QH of Cc1cc(C)cc(N2CCN(c3nccc(COC(=O)NC(=N)N)c3F)CC2)c1 was 13

Lab note: measured QH of N=C(N)NC(=O)OCc1ccnc(N2CCC(N3Cc4ccccc4C3=O)CC2)c1F was 8

Lab note: measured QH of N#Cc1ccc(N2CCN(c3nccc(COC(=O)NC(=N)N)n3)CC2)cc1 was 9

Lab note: measured QH of COc1cccc(N2CCN(c3nccc(COC(=O)NC(=N)N)c3F)CC2)c1 was 23

Lab note: measured QH of N=C(N)NC(=O)OCc1ccnc(N2CCC(c3ccc(Cl)cc3)CC2)c1F was 24

====

# Assayed System: AOC3 (Homo sapiens (Human), UniProt Q16853)
# Sequence (Q16853 whole entry): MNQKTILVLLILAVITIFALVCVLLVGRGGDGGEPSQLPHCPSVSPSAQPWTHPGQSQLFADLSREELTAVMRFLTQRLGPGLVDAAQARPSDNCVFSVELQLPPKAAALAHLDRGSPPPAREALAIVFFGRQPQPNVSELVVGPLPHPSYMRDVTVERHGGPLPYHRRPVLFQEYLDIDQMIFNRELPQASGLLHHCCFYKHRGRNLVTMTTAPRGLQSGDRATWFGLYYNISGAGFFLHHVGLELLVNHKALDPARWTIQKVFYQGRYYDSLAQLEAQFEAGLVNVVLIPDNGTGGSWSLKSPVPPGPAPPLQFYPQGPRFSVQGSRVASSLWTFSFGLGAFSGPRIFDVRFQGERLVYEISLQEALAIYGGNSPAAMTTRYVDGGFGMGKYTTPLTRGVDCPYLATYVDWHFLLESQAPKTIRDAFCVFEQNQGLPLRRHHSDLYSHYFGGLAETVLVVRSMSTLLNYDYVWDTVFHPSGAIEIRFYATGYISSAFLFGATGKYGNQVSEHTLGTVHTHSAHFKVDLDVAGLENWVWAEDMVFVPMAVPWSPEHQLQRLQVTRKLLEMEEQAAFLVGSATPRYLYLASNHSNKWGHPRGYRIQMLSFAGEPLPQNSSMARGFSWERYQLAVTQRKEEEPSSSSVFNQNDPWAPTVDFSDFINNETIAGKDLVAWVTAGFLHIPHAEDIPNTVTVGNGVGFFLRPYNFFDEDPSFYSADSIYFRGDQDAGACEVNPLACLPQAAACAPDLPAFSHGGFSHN
# Measurement Protocol: MAO-Glo AOC3 assay (recombinant CHO cells overexpressing AOC3)
# Assay type: biochemical
# Test Settings: Table 1, read-out: AOC3 IC50
Measured Attribute: pIC50
By convention, pIC50 is the negative base-10 log of a molar concentration.

Lab note: measured pIC50 of N=C(N)NC(=O)OCc1ccnc(N2CCN(c3ccc(C(F)(F)F)cc3)CC2)c1F [Example 1.097] was 7.96

Lab note: measured pIC50 of N=C(N)NC(=O)OCc1ccnc(N2CC=C(c3ncccn3)CC2)c1F [Example 1.007] was 7.02

Lab note: measured pIC50 of COc1ncc(N2CCN(c3cccc(COC(=O)NC(=N)N)n3)CC2)cn1 [Example 1.036] was 8.15

Lab note: measured pIC50 of N#Cc1ccc(N2CCN(c3nccc(COC(=O)NC(=N)N)n3)CC2)cc1 [Example 1.027] was 8.70

Lab note: measured pIC50 of N=C(N)NC(=O)OCc1ccnc(N2CCC(c3cccc(Cl)c3)CC2)c1F [Example 1.075] was 7.85

Lab note: measured pIC50 of N#Cc1ccc(N2CCN(c3nccc(COC(=O)NC(=N)N)c3F)CC2)nc1 [Example 1.056] was 8.40

Lab note: measured pIC50 of COC(=O)c1cnc(N2CCN(c3nccc(COC(=O)NC(=N)N)c3F)CC2)nc1 [Example 1.093] was 7.77

Lab note: measured pIC50 of N=C(N)NC(=O)OCc1ccnc(N2CCN(c3ccc(C(N)=O)cn3)CC2)c1F [Example 1.086] was 8.15

Lab note: measured pIC50 of N=C(N)NC(=O)OCc1ccnc(N2CCC(C3CCCCC3)CC2)c1F [Example 1.020] was 7.46

Lab note: measured pIC50 of N=C(N)NC(=O)OCc1ccnc(N2CCN(c3ccccc3)CC2)c1F [Example 1.009] was 7.39

Lab note: measured pIC50 of N#CC1CCN(C2CCN(c3nccc(COC(=O)NC(=N)N)c3F)CC2)CC1 [Example 1.070] was 7.11

Lab note: measured pIC50 of COc1ccc(N2CCN(c3nccc(COC(=O)NC(=N)N)c3F)CC2)cc1 [Example 1.067] was 8.30

Lab note: measured pIC50 of N=C(N)NC(=O)OCc1ccnc(N2CC=C(c3ccccn3)CC2)c1F [Example 1.006] was 7.74

Lab note: measured pIC50 of N=C(N)NC(=O)OCc1ccnc(N2CCN(c3ncc(F)cn3)CC2)c1F [Example 1.045] was 7.62

Lab note: measured pIC50 of N=C(N)NC(=O)OCc1ccnc(N2CCC(N3CCC(C(N)=O)CC3)CC2)c1F [Example 1.088] was 7.32

Lab note: measured pIC50 of Cc1ccc(C2CCN(c3nccc(COC(=O)NC(=N)N)c3F)CC2)cc1 [Example 1.029] was 8.05

Lab note: measured pIC50 of Cc1cc(N2CCN(c3nccc(COC(=O)NC(=N)N)c3F)CC2)ccn1 [Example 1.039] was 8.70

Lab note: measured pIC50 of N#Cc1ccc(N2CCN(c3nccc(COC(=O)NC(=N)N)c3F)CC2)cn1 [Example 1.057] was 8.52

Lab note: measured pIC50 of COC(=O)N1CCC(C2CCN(c3nccc(COC(=O)NC(=N)N)c3F)CC2)CC1 [Example 1.095] was 8.52

Lab note: measured pIC50 of COc1cccc(C2=CCN(c3nccc(COC(=O)NC(=N)N)c3F)CC2)c1 [Example 1.058] was 8.40

Lab note: measured pIC50 of N=C(N)NC(=O)OCc1ccnc(N2CCN(c3ccccc3F)CC2)c1F [Example 1.043] was 7.89

Lab note: measured pIC50 of CN(C)C(=O)c1ccc(N2CCN(c3nccc(COC(=O)NC(=N)N)c3F)CC2)cc1 [Example 1.100] was 8.30

Lab note: measured pIC50 of N=C(N)NC(=O)OCc1ccnc(N2CCN(c3ncccn3)CC2)c1F [Example 1.014] was 7.39

Lab note: measured pIC50 of Cc1cccc(C2CCN(c3nccc(COC(=O)NC(=N)N)c3F)CC2)c1 [Example 1.028] was 8.00

Lab note: measured pIC50 of N=C(N)NC(=O)OCc1ccnc(N2CCC3(C=Cc4ccccc43)CC2)c1F [Example 1.049] was 7.66

Lab note: measured pIC50 of N=C(N)NC(=O)OCc1ccnc(N2CCN(c3ncncn3)CC2)c1F [Example 1.018] was 7.77

Lab note: measured pIC50 of N#Cc1ccc(N2CCN(c3nccc(COC(=O)NC(=N)N)c3F)CC2)c(C(F)(F)F)c1 [Example 1.105] was 7.51

Lab note: measured pIC50 of N=C(N)NC(=O)OCc1ccnc(N2CCC(c3ccc(F)cc3)CC2)c1F [Example 1.041] was 8.05

Lab note: measured pIC50 of N#Cc1ccc(C2CN(c3cccc(COC(=O)NC(=N)N)n3)C2)cc1 [Example 1.003] was 7.80

Lab note: measured pIC50 of N=C(N)NC(=O)OCc1ccnc(N2CCN(c3ccc(C(F)(F)F)nn3)CC2)c1F [Example 1.099] was 8.30

Lab note: measured pIC50 of Cc1ccc(N2CCN(c3nccc(COC(=O)NC(=N)N)c3F)CC2)nc1 [Example 1.038] was 7.85

Lab note: measured pIC50 of N=C(N)NC(=O)OCc1ccnc(N2C3CCC2CC(c2ccccc2)C3)c1F (stereo not shown) [Example 1.052] was 7.08

Lab note: measured pIC50 of N=C(N)NC(=O)OCc1ccnc(N2CCC(c3ccc(Cl)cc3)CC2)c1F [Example 1.074] was 8.15

Lab note: measured pIC50 of CC(=O)N1CCC(C2CN(c3nccc(COC(=O)NC(=N)N)c3F)C2)CC1 [Example 1.047] was 8.10

====

# Assayed System: AOC3 (Homo sapiens (Human))
# Measurement Protocol: MAO-Glo AOC3 assay (recombinant CHO cells overexpressing AOC3)
# Format: biochemical
# Test Settings: Table 2, compounds of the present invention, read-out: IC50
Give IC50 for every item shown.
Respond numerically; units are nM and should not be typed.

Record COc1ncc(N2CCN(c3nccc(COC(=O)NC(=N)N)c3F)CC2)cn1 [Example 1.072] / AOC3 (Homo sapiens (Human)), IC50 recorded as 4.1

Record N=C(N)NC(=O)OCc1ccnc(N2CCN(c3ccc(C(N)=O)cc3)CC2)c1F [Example 1.084] / AOC3 (Homo sapiens (Human)), IC50 recorded as 2.8

Record COc1ccc(N2CCN(c3nccc(COC(=O)NC(=N)N)c3F)CC2)cc1 [Example 1.067] / AOC3 (Homo sapiens (Human)), IC50 recorded as 4.6

====

Give pIC50 for every item shown.
# Assayed System: UniProt Q16853
# Measurement Protocol: MAO-Glo AOC3 assay (recombinant CHO cells overexpressing AOC3)
# Assay type: biochemical
# Test Settings: Table 1, read-out: AOC3 IC50
By convention, pIC50 is the negative base-10 log of a molar concentration.

Lab note: measured pIC50 of CC(=O)N1CCC(C2CN(c3cccc(COC(=O)NC(=N)N)n3)C2)CC1 was 8.00

Lab note: measured pIC50 of N=C(N)NC(=O)OCc1ccnc(N2CCC(c3ccncc3)CC2)c1F was 8.52

Lab note: measured pIC50 of N=C(N)NC(=O)OCc1ccnc(N2CCC(C3CCOCC3)CC2)c1F was 8.10

Lab note: measured pIC50 of N=C(N)NC(=O)OCc1ccnc(N2CC(c3ccccc3)C2)c1F was 7.01

Lab note: measured pIC50 of N=C(N)NC(=O)OCc1ccnc(N2CCN(c3ccccc3)C(=O)C2)c1F was 8.22

Lab note: measured pIC50 of N=C(N)NC(=O)OCc1ccnc(N2CCN(c3cccnn3)CC2)c1F was 7.66

Lab note: measured pIC50 of CCc1ccc(N2CCN(c3nccc(COC(=O)NC(=N)N)c3F)CC2)cc1 was 7.96

Lab note: measured pIC50 of Cc1ccccc1N1CCN(c2nccc(COC(=O)NC(=N)N)c2F)CC1 was 7.24

Lab note: measured pIC50 of N=C(N)NC(=O)OCc1ccnc(N2CC(c3ccc(OCC4CC4)cc3)C2)c1F was 7.66

Lab note: measured pIC50 of Cc1cccc(C)c1N1CCN(c2nccc(COC(=O)NC(=N)N)c2F)CC1 was 6.66

Lab note: measured pIC50 of N=C(N)NC(=O)OCc1ccnc(N2CCC(N3Cc4ccccc4C3=O)CC2)c1F was 8.40

Lab note: measured pIC50 of N=C(N)NC(=O)OCc1ccnc(N2CCC(c3ccc(C(=O)O)cc3)CC2)c1F was 8.70

Lab note: measured pIC50 of N=C(N)NC(=O)OCc1ccnc(N2CC=C(c3ccc(F)cc3)CC2)c1F was 8.05

Lab note: measured pIC50 of N=C(N)NC(=O)OCc1ccnc(N2CCN(c3cncnc3)CC2)c1F was 8.52

Lab note: measured pIC50 of N=C(N)NC(=O)OCc1ccnc(N2CCC(c3nccs3)CC2)c1F was 7.31

Lab note: measured pIC50 of CS(=O)(=O)c1ccc(N2CCN(c3nccc(COC(=O)NC(=N)N)c3F)CC2)c(F)c1 was 8.22

Lab note: measured pIC50 of CNC(=O)c1ccc(N2CCN(c3nccc(COC(=O)NC(=N)N)c3F)CC2)nc1 was 8.15

Lab note: measured pIC50 of Cc1cc(C)cc(N2CCN(c3nccc(COC(=O)NC(=N)N)c3F)CC2)c1 was 8.10
